- System: HOP-62 NSCLC
- Assay details: NCI-60 one-dose screen, 48 h (100 = growth as untreated, 0 = no growth, -100 = all killed)
- Study conditions: 10 µM unless noted
This is part of a sample that, as a whole, favours compounds with a hit. Of some 83,000 tested, about 20% had one in any assay.
Measurement type: growth (%)
# number only, unit % dropped from output

Sample records with growth:
Compound	growth / %
c1cn2c(ccc3nc(-c4cn[nH]c4)c4c(c32)CCCC4)n1	71.8
CS(=O)(=O)Nc1cc(-c2ccc3ncc(C#N)c(N[C@H](CO)c4ccccc4)c3c2)cnc1Cl	46.8
C#CCNC1CCC(c2csc(C#C)n2)=C1C (centres undefined)	28.2
CC(=O)C1=C(C)NC(NNC(N)=S)=NC1c1ccccc1 (centres undefined)	71.8
COc1ccc(C2c3sc4c(C)cccc4c3Oc3nc(CC(=O)Nc4ccccc4)[nH]c(=O)c32)cc1 (centres undefined)	60.5

Report growth for N#Cc1cccc(CN2CCC3=C(C2)C(=O)N(Cc2ccc(Cl)cc2)C2=NCCN23)c1 please.
31.8

Also Nc1nc(N)c2c(n1)NC(c1ccc(C(F)(F)F)cc1)CC(c1ccc(Nc3nc(NCCO)nc(N4CCOCC4)n3)cc1)=N2 (centres undefined) , if possible.
47.1

Also CC1(C)CC[C@]2(C(=O)N3CCOCC3)CC[C@]3(C)C(=CC[C@@H]4[C@@]5(C)C/C(=C/c6ccco6)C(=O)C(C)(C)[C@@H]5CC[C@]43C)[C@@H]2C1 , if possible.
87

Also CCc1cccc(NC(=O)CNc2cc(S(=O)(=O)N(C)C)cc(C)c2C)c1 , if possible.
73.8
